System: Fibroblast
measurement-protocol: Multiplex assay against human fibroblast
Type: toxicity, cell-based
experimental-conditions: 12 h, 10 µM, compound concentration 10 uM, replicate 1
measure-name: Population Healthy Nuclei (%)
Write the number in % without appending the unit.

Field request: Population Healthy Nuclei (%) | item: Cc1nc(-c2ccc(-c3ccc(C(=O)N4CCc5cc6c(cc54)C4(CCN(C)CC4)CO6)cc3)c(C)c2)no1
40

Field request: Population Healthy Nuclei (%) | item: Cn1cc(-c2[nH]c3cc(NC(=O)[C@H](N)C4CCCCC4)cc4c3c2C=NNC4=O)cn1
38

Field request: Population Healthy Nuclei (%) | item: Cc1c(-c2ccc(O)cc2)n(Cc2ccc(OCCN3CCCCCC3)cc2)c2ccc(O)cc12
36

Field request: Population Healthy Nuclei (%) | item: CN1CCN(CCOc2cc(OC3CCOCC3)c3c(Nc4c(Cl)ccc5c4OCO5)ncnc3c2)CC1
57

Field request: Population Healthy Nuclei (%) | item: CC(C)(O)CNc1ncc(-c2ccnc(Nc3ccnc(Cl)c3)n2)c(CC2CC2)n1
24

====

Test system: U2OS
measurement-protocol: Multiplex assay against U2OS
Assay type: toxicity, cell-based
experimental-conditions: human, 24 h, 1 µM, compound concentration 1 uM, replicate 2
measure-name: Population Pyknosed Nuclei (%)
Write the number in % without appending the unit.

Field request: Population Pyknosed Nuclei (%) | item: O=C1NCN(c2ccccc2)C12CCN(CCCOc1ccc(F)cc1)CC2 [SPIRAMIDE]
3

Field request: Population Pyknosed Nuclei (%) | item: Cc1cc(C)cc(-c2cnc3cc(Cl)c(-c4cccc(O)c4)cc3c2OCCCN)c1
13

Field request: Population Pyknosed Nuclei (%) | item: CNc1nc(NCc2ccc(NS(C)(=O)=O)cc2Cl)cc(-c2ccccn2)n1
5

Field request: Population Pyknosed Nuclei (%) | item: c1cn2cc(-c3ccc4cn[nH]c4c3)nc(Nc3ccc(N4CCOCC4)cc3)c2n1
11

Field request: Population Pyknosed Nuclei (%) | item: Cc1c(-c2ccc(O)cc2)n(Cc2ccc(OCCN3CCCCCC3)cc2)c2ccc(O)cc12
15

Field request: Population Pyknosed Nuclei (%) | item: Cc1nc(Nc2n[nH]c3c2CN(C(=O)N[C@H](CN(C)C)c2ccccc2)C3(C)C)c2sccc2n1
12

Field request: Population Pyknosed Nuclei (%) | item: CN(C)CC#Cc1ccc(OCCCc2sc(N3CCc4cccc(C(=O)Nc5nc6ccccc6s5)c4C3)nc2C(=O)O)c(F)c1
9

Field request: Population Pyknosed Nuclei (%) | item: Cc1nc(-c2ccc(-c3ccc(C(=O)N4CCc5cc6c(cc54)C4(CCN(C)CC4)CO6)cc3)c(C)c2)no1
7

====

System: HEK-293T
measurement-protocol: Incucyte cell viability with HEK293T; also: filed as whole numbers so only -1 and 0 and 1 occur
Assay type: toxicity, cell-based
experimental-conditions: human, 24 h, 10 µM, compound concentration 10 uM, replicate number 1, timepoint 24 hours
measure-name: Growth Rate
Lab note: record the figure alone, no unit after it.

Field request: Growth Rate | item: COc1cccc(OC)c1-c1cc(C(=O)NC2(C(=O)O)C3CC4CC(C3)CC2C4)nn1-c1ccc(C(=O)N(C)CCCN(C)C)cc1C(C)C (stereo not given)
1

Field request: Growth Rate | item: CN(c1ccnc(CNc2nc(Nc3ccc4c(c3)CC(=O)N4)ncc2C(F)(F)F)n1)S(C)(=O)=O
0

Field request: Growth Rate | item: CN1CCCC(n2nc(Cc3ccc(Cl)cc3)c3ccccc3c2=O)CC1.Cl (stereo not given) [AZELASTINE HYDROCHLORIDE]
0

Field request: Growth Rate | item: CCC(=O)Nc1cccc(Oc2nc(Nc3ccc(N4CCN(C)CC4)cc3OC)ncc2Cl)c1
0

Field request: Growth Rate | item: OC1(c2ccc(Cl)cc2)CCN(Cc2c[nH]c3ccccc23)CC1
0
